Data provenance: patent US20230321086A1

Assay read-out IC50; system under study: NAMPT (Homo sapiens).
Sequence (P43490 whole entry, species assumed): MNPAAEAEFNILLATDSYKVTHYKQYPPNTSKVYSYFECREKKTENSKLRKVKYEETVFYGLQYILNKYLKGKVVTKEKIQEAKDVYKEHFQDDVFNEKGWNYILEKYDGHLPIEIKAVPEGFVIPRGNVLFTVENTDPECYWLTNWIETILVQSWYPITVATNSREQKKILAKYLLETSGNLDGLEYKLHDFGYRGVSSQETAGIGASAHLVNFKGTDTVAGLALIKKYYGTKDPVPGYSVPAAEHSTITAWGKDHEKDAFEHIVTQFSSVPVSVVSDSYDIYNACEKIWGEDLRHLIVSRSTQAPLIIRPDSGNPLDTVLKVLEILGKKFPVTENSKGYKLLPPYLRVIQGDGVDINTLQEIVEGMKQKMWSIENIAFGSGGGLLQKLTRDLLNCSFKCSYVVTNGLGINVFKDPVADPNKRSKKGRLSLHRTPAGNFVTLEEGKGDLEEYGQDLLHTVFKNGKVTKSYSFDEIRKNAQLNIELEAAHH

{"Molecule": "O=C(Nc1cnc2nc(-c3ccc(F)cc3)c(-c3ccc(F)cc3)nc2c1)NC1CCCNC1 (stereo not drawn) [BC20255]", "Test Target": "NAMPT (Homo sapiens)", "Quantity": "IC50", "Recorded Value": "≥ 25 µM"}
{"Molecule": "CC(=O)NCc1cccc(-c2nc3ccc(C(=O)N4CCN(C)CC4)cc3nc2-c2cccc(CNC(C)=O)c2)c1 [BC20272]", "Test Target": "NAMPT (Homo sapiens)", "Quantity": "IC50", "Recorded Value": "≥ 25 µM"}
{"Molecule": "CC(=O)N1CCCC(NC(=O)Nc2cnc3nc(-c4ccc(F)cc4)c(-c4ccc(F)cc4)nc3c2)C1 (stereo not drawn) [BC20239]", "Test Target": "NAMPT (Homo sapiens)", "Quantity": "IC50", "Recorded Value": "≥ 25 µM"}
{"Molecule": "O=C(NCc1ccc2nc(-c3ccc(F)cc3)c(-c3ccc(F)cc3)nc2c1)NC[C@H]1CCCNC1 [BC20285]", "Test Target": "NAMPT (Homo sapiens)", "Quantity": "IC50", "Recorded Value": "1 to 25 µM"}
{"Molecule": "CN1CCN(C(=O)c2ccc3nc(-c4cccc(CN5CCCC5)c4)c(-c4ccc(F)cc4)nc3c2)CC1 [BC20248]", "Test Target": "NAMPT (Homo sapiens)", "Quantity": "IC50", "Recorded Value": "≥ 25 µM"}
{"Molecule": "CS(=O)(=O)N1CCC[C@H](CNC(=O)NCc2ccc3nc(-c4ccc(F)cc4)c(-c4ccc(F)cc4)nc3c2)C1 [BC20284]", "Test Target": "NAMPT (Homo sapiens)", "Quantity": "IC50", "Recorded Value": "1 to 25 µM"}

Q: Give IC50 (NAMPT (Homo sapiens)) of the following molecule: Fc1ccc(-c2nc3cc(NC(=S)NCCc4cccnc4)cnc3nc2-c2ccc(F)cc2)cc1 [BC20309]
Result: < 1 µM
